Test system: HSC2
Assay: relative IC50 (inflection point of fitted dose-response curve, CellTox-Green cytotoxicity, 72 h; top asymptote may be below 50%); higher = less potent

{"chemical.smiles": "COc1cc(Nc2c(C#N)cnc3cc(OCCCN4CCN(C)CC4)c(OC)cc23)c(Cl)cc1Cl", "target.system": "HSC2", "relative IC50": "3.25 µM"}
{"chemical.smiles": "CO[C@H]1C[C@@H]2CC[C@@H](C)[C@@](O)(O2)C(=O)C(=O)N2CCCC[C@H]2C(=O)O[C@H]([C@H](C)C[C@@H]2CC[C@@H](OC(=O)C(C)(CO)CO)[C@H](OC)C2)CC(=O)[C@H](C)/C=C(\\C)[C@@H](O)[C@@H](OC)C(=O)[C@H](C)C[C@H](C)/C=C/C=C/C=C/1C", "target.system": "HSC2", "relative IC50": "> 0.1 µM"}
{"chemical.smiles": "O=NN(CCCl)C(=O)NCCCl", "target.system": "HSC2", "relative IC50": "> 10 µM"}
{"chemical.smiles": "CC(C)NC[C@@H](C(=O)N1CCN(c2ncnc3c2[C@H](C)C[C@H]3O)CC1)c1ccc(Cl)cc1", "target.system": "HSC2", "relative IC50": "> 10 µM"}
{"chemical.smiles": "CN1CCN(c2nc(C3=C(c4c[nH]c5ccccc45)C(=O)NC3=O)c3ccccc3n2)CC1", "target.system": "HSC2", "relative IC50": "> 10 µM"}
{"chemical.smiles": "CC(=O)OC[C@H]1O[C@@H]([S-])[C@H](OC(C)=O)[C@@H](OC(C)=O)[C@@H]1OC(C)=O.CCP(CC)CC.[Au+]", "target.system": "HSC2", "relative IC50": "0.575 µM"}
